Kindly find below IC50 information for Prostaglandin G/H synthase 2 (Mus musculus, UniProt Q05769) taken from the literature.
reported.property: IC50 (nM)

Answered cases to consult:
{"compound.structure": "CC1=C(C)Cc2c(-c3ccccc3)[nH]c(-c3ccccc3)c2C1", "assayed.system": "Prostaglandin G/H synthase 2 (Mus musculus, UniProt Q05769)", "IC50 (nM)": 14.5}
{"compound.structure": "Cc1ccccc1-c1c(-c2ccc(S(C)(=O)=O)cc2)oc2ccccc2c1=O", "assayed.system": "Prostaglandin G/H synthase 2 (Mus musculus, UniProt Q05769)", "IC50 (nM)": 948}
{"compound.structure": "CS(=O)(=O)c1ccc(-c2oc3ccccc3c(=O)c2-c2cccc(Cl)c2)cc1", "assayed.system": "Prostaglandin G/H synthase 2 (Mus musculus, UniProt Q05769)", "IC50 (nM)": 365}
{"compound.structure": "COc1ccc(-c2c(-c3ccc(S(N)(=O)=O)cc3)oc3ccccc3c2=O)cc1", "assayed.system": "Prostaglandin G/H synthase 2 (Mus musculus, UniProt Q05769)", "IC50 (nM)": 393}
{"compound.structure": "CS(=O)(=O)c1ccc(-c2[nH]c(-c3ccc(S(C)(=O)=O)cc3)c3c2C2CCC3C2)cc1", "assayed.system": "Prostaglandin G/H synthase 2 (Mus musculus, UniProt Q05769)", "IC50 (nM)": 10000}
{"compound.structure": "NS(=O)(=O)c1ccc(-c2[nH]c3ccc(Cl)cc3c2-c2ccccc2)cc1", "assayed.system": "Prostaglandin G/H synthase 2 (Mus musculus, UniProt Q05769)", "IC50 (nM)": 0.141}
{"compound.structure": "CC1(C)OC(c2ccc(S(C)(=O)=O)cc2)=C(c2cc(F)cc(F)c2)C1=O", "assayed.system": "Prostaglandin G/H synthase 2 (Mus musculus, UniProt Q05769)", "IC50 (nM)": 79.3}
{"compound.structure": "CC1(C)OC(c2ccc(S(C)(=O)=O)cc2)=C(c2cccnc2)C1=O", "assayed.system": "Prostaglandin G/H synthase 2 (Mus musculus, UniProt Q05769)", "IC50 (nM)": 1460}
{"compound.structure": "CCOC(=O)Cc1cc(-c2ccc(C)cc2)n(-c2ccc(S(C)(=O)=O)cc2)c1C", "assayed.system": "Prostaglandin G/H synthase 2 (Mus musculus, UniProt Q05769)", "IC50 (nM)": 1960}
{"compound.structure": "CCOC(=O)[C@H](O)c1cc(-c2ccc(S(C)(=O)=O)cc2)n(-c2cccc(F)c2)c1C", "assayed.system": "Prostaglandin G/H synthase 2 (Mus musculus, UniProt Q05769)", "IC50 (nM)": 75}

a = CCOC(=O)[C@H](OCC)c1cc(-c2ccc(S(C)(=O)=O)cc2)n(-c2ccc(OC)cc2)c1C
b = CCOC(=O)C(=O)c1cc(-c2ccc(S(C)(=O)=O)cc2)n(-c2cccc(F)c2)c1C
c = CONC1=NC(=O)/C(=C/c2cc(C(C)(C)C)c(O)c(C(C)(C)C)c2)S1
d = CC1(C)OC(c2ccc(S(N)(=O)=O)cc2)=C(c2ccsc2)C1=O
Sort by IC50, descending. Arrange the labels as the request states and list them.
b, d, c, a

A = CS(=O)(=O)c1ccc(-c2oc3ccccc3c(=O)c2-c2cccc3ccccc23)cc1
B = NS(=O)(=O)c1ccc(-c2oc3ccccc3c(=O)c2-c2ccccc2)cc1
Which item exceeds the other in IC50, A or B ? Select an item and report its label.
A

1 = CS(=O)(=O)c1ccc(-c2oc3ccccc3c(=O)c2-c2ccccc2)cc1
2 = Cc1ccc(S(=O)(=O)NC(=O)c2cncc(C(=O)NS(=O)(=O)c3ccc(C)cc3)c2)cc1
3 = O=C(NS(=O)(=O)c1ccccc1)c1cccnc1
4 = NS(=O)(=O)c1ccc(-c2[nH]c3ccccc3c2-c2ccccc2)cc1
5 = CCOC(=O)Cc1cc(-c2ccc(OC)cc2)n(-c2ccc(S(C)(=O)=O)cc2)c1C
Sort by IC50, descending. Arrange the labels as the request states and list them.
3, 2, 1, 5, 4
(3: 15800 nM, 2: 8500 nM, 1: 930 nM, 5: 550 nM, 4: 0.0891 nM)

a = CCOC(=O)C(=O)c1cc(-c2ccc(S(C)(=O)=O)cc2)n(-c2ccc(OC)cc2)c1C
b = CC1(C)OC(c2ccc(S(N)(=O)=O)cc2)=C(c2cccc(F)c2)C1=O
c = CC(C)(C)c1cc(/C=C2\SC(NO)=NC2=O)cc(C(C)(C)C)c1O
Reorder the items by IC50, least to greatest. Arrange the labels as the request states and list them.
b, c, a
(b: 8.3 nM, c: 170 nM, a: 940 nM)

###

pIC50: −log10 of the molar value.
Kindly find below pIC50 information for Prostaglandin G/H synthase 2 (Mus musculus, UniProt Q05769) taken from the literature.
reported.property: pIC50

Answered cases to consult:
{"compound.structure": "CC1(C)OC(c2ccc(S(C)(=O)=O)cc2)=C(c2ccc(F)c(Cl)c2)C1=O", "pIC50": 6.12}
{"compound.structure": "CCONC1=NC(=O)/C(=C/c2cc(C(C)(C)C)c(O)c(C(C)(C)C)c2)O1", "pIC50": 6.19}
{"compound.structure": "CCC1(CC)OC(c2ccc(S(C)(=O)=O)cc2)=C(c2cccc(C)c2)C1=O", "pIC50": 5.89}
{"compound.structure": "CS(=O)(=O)c1ccc(-c2oc3ccccc3c(=S)c2-c2ccc(Cl)c(Cl)c2)cc1", "pIC50": 6.28}

1 = CS(=O)(=O)c1ccc(-c2oc3ccccc3c(=S)c2-c2ccccc2)cc1
2 = CS(=O)(=O)c1ccc(-c2oc3ccccc3c(=O)c2-c2cccc(F)c2)cc1
3 = CC1(C)OC(c2ccc(S(N)(=O)=O)cc2)=C(c2ccccc2)C1=O
4 = CS(=O)(=O)c1ccc(C2=C(c3ccccc3)C(=O)C3(CCCCC3)O2)cc1
Reorder the items by pIC50, least to greatest. Arrange the labels as the request states and list them.
4, 2, 1, 3
(4: 5.28, 2: 6.27, 1: 6.99, 3: 7.63)

P = O=C(NS(=O)(=O)c1ccc(Cl)cc1)c1ccncc1
Q = CCONC1=NC(=O)/C(=C/c2cc(C(C)(C)C)c(O)c(C(C)(C)C)c2)S1
Would you mind telling me which has the lower recorded pIC50 between P and Q ? Select an item and report its label.
P

I = CCOC(=O)[C@@H](O)c1cc(-c2ccc(S(C)(=O)=O)cc2)n(-c2cccc(F)c2)c1C
II = CS(=O)(=O)c1ccc(C2=C(c3cccc(F)c3)C(=O)C3(CCCC3)O2)cc1
III = CC1(C)OC(c2ccc(S(C)(=O)=O)cc2)=C(c2cccc(C(F)(F)F)c2)C1=O
IV = C=CCONC1=NC(=O)/C(=C/c2cc(C(C)(C)C)c(O)c(C(C)(C)C)c2)O1
V = c1ccc(-c2[nH]c(-c3ccccc3)c3c2CCCC3)cc1
Reorder the items by pIC50, least to greatest. Arrange the labels as the request states and list them.
II, IV, I, III, V

A = O=C(NS(=O)(=O)c1ccc(F)cc1)c1ccncc1
B = c1ccc(-c2[nH]c(-c3ccccc3)c3c2C2CCC3CC2)cc1
Would you mind telling me which has the lower recorded pIC50 between A and B ? Select an item and report its label.
A
(A: 4.92, B: 8.80)

###

Kindly find below IC50 information for Prostaglandin G/H synthase 2 (Mus musculus, UniProt Q05769) taken from the literature.
reported.property: IC50 (nM)

Answered cases to consult:
{"compound": "CC(C)(C)c1cc(/C=C2\\SC(N=C(N)N)=NC2=O)cc(C(C)(C)C)c1O", "unit.of.measure": "nM", "IC50": 430}
{"compound": "c1ccc(-c2[nH]c(-c3ccccc3)c3c2C2CCC3C2)cc1", "unit.of.measure": "nM", "IC50": 2.6}
{"compound": "CS(=O)(=O)c1ccc(-c2[nH]c(-c3ccc(F)cc3)c3c2C2CCC3C2)cc1 (stereo unspecified)", "unit.of.measure": "nM", "IC50": 700}
{"compound": "CC1(C)OC(c2ccc(S(C)(=O)=O)cc2)=C(c2ccccc2)C1=O", "unit.of.measure": "nM", "IC50": 146}
{"compound": "NS(=O)(=O)c1ccc(-c2oc3ccccc3c(=O)c2-c2ccccc2F)cc1", "unit.of.measure": "nM", "IC50": 177}

a = Cc1ccc(S(=O)(=O)NC(=O)c2ccccn2)cc1
b = CC(=O)NS(=O)(=O)c1ccc(-c2[nH]c3ccccc3c2-c2ccccc2)cc1
Which item exceeds the other in IC50, a or b ? Select an item and report its label.
a

###

Kindly find below IC50 information for Prostaglandin G/H synthase 2 (Mus musculus, UniProt Q05769) taken from the literature.
reported.property: IC50 (µM)

{"molecule": "Cc1ccccc1C1=C(c2ccc(S(C)(=O)=O)cc2)OC(C)(C)C1=O", "experimental.value": 0.842}
{"molecule": "Cn1cc(C2=C(c3ccc(S(C)(=O)=O)cc3)OC(C)(C)C2=O)cn1", "experimental.value": 1.44}

1 = Cc1ccc(Cl)c(Nc2ccccc2C(=O)O)c1Cl
2 = C=CCONC1=NC(=O)/C(=C/c2cc(C(C)(C)C)c(O)c(C(C)(C)C)c2)S1
3 = Cc1ccc(-c2c(-c3ccc(S(C)(=O)=O)cc3)[nH]c3ccccc23)cc1C
4 = CC1Cc2c(-c3ccccc3)[nH]c(-c3ccccc3)c2CC1C (stereo not given)
5 = Cc1ccc2[nH]c(-c3ccc(S(C)(=O)=O)cc3)c(-c3ccccc3)c2c1
Sort by IC50, descending. Arrange the labels as the request states and list them.
2, 1, 4, 5, 3
(2: 1.6 µM, 1: 0.2 µM, 4: 0.0031 µM, 5: 0.000282 µM, 3: 0.00017 µM)
